Source: patent US20250242064A1

- Experimental details: in vivo
- Set-up: species or system mice
- Details: male, NOD.Cg-Rag1tm1Mom Il2rgtm1Wjl/SzJ (NRG), mouse, iv, total radioactivity, Biodistribution: Adrenals
Where a SMILES comes first, the peptide text is derived from it. Bridges are numbered along the chain shown (N, C = ends). [ ]: non-standard residue; d: D form. The star is where a group is joined. X3 = O=C(O)CN1CCN(CC(=O)O)CCN(CC(=O)N[C@@H](CS(=O)(=O)O)C(=O)N[C@@H](CCCCNC(=O)CCCc2ccc(Br)cc2)C(=O)*)CCN(CC(=O)O)CC1; X1 = O=C(O)CN1CCN(CC(=O)O)CCN(CC(=O)N[C@@H](CS(=O)(=O)O)C(=O)N[C@@H](CCCCNC(=O)CCCc2ccc(I)cc2)C(=O)*)CCN(CC(=O)O)CC1; X6 = COc1ccc(CCCC(=O)NCCCC[C@H](NC(=O)[C@H](CS(=O)(=O)O)NC(=O)CN2CCN(CC(=O)O)CCN(CC(=O)O)CCN(CC(=O)O)CC2)C(=O)*)cc1; 2Nal = N[C@@H](Cc1ccc2ccccc2c1)C(=O)O; Lys(iPr) = CC(C)NCCCC[C@H](N)C(=O)O
Entries and their tissue uptake at 1 h values follow.
// units = %ID/g; emit number, no label

Some compounds with recorded tissue uptake at 1 h:
COc1ccc(CCCC(=O)NCCCC[C@H](NC(=O)[C@H](CS(=O)(=O)O)NC(=O)CN2CCN(CC(=O)O)CCN(CC(=O)O)CCN(CC(=O)O)CC2)C(=O)NCCCC[C@@H]2NC(=O)CC[C@H](C(=O)N[C@@H](CCCCNC(C)C)C(N)=O)NC(=O)[C@@H](C)NC(=O)[C@H](Cc3ccc4ccccc4c3)NC(=O)[C@@H](CCCNC(=N)N)NC(=O)[C@H](CCCCNC(C)C)NC(=O)[C@H](Cc3ccc(O)cc3)NC2=O)cc1 [[^68Ga]Ga-BL34L7, metal not drawn] (K(X6)Y[Lys(iPr)][dR][2Nal][dA][dE][Lys(iPr)]-NH2; lactam N-7) ... 0.52
CC(C)NCCCC[C@H](NC(=O)[C@H]1CCC(=O)N[C@@H](CCCCNC(=O)[C@H](CCCCNC(=O)CCCc2ccc(I)cc2)NC(=O)[C@H](CS(=O)(=O)O)NC(=O)CN2CCN(CC(=O)O)CCN(CC(=O)O)CCN(CC(=O)O)CC2)C(=O)N[C@@H](Cc2ccc(O)cc2)C(=O)N[C@@H](CCCCNC(C)C)C(=O)N[C@H](CCCNC(=N)N)C(=O)N[C@@H](Cc2ccc3ccccc3c2)C(=O)N[C@H](C)C(=O)N1)C(N)=O [[^68Ga]Ga-BL34L11, metal not drawn] (K(X1)Y[Lys(iPr)][dR][2Nal][dA][dE][Lys(iPr)]-NH2; lactam N-7) ... 4.99

Request: For the compound CC(C)NCCCC[C@H](NC(=O)[C@H]1CCC(=O)N[C@@H](CCCCNC(=O)[C@H](CCCCNC(=O)CCCc2ccc(Br)cc2)NC(=O)[C@H](CS(=O)(=O)O)NC(=O)CN2CCN(CC(=O)O)CCN(CC(=O)O)CCN(CC(=O)O)CC2)C(=O)N[C@@H](Cc2ccc(O)cc2)C(=O)N[C@@H](CCCCNC(C)C)C(=O)N[C@H](CCCNC(=N)N)C(=O)N[C@@H](Cc2ccc3ccccc3c2)C(=O)N[C@H](C)C(=O)N1)C(N)=O [[^177Lu]Lu-BL34L20, metal not drawn] (K(X3)Y[Lys(iPr)][dR][2Nal][dA][dE][Lys(iPr)]-NH2; lactam N-7) , give its measured tissue uptake at 1 h value.
Response: 2.44
